assay: Oral bioavailability in Wistar-Han rat at 1 mg/kg; type: ADME, organism-based; conditions: in vivo
outcome measure: bioavailability (%)

Some compounds with known bioavailability results, for comparison:
CCn1c(-c2cnc(C)nc2)nc2c(-c3cnc4c(c3)[C@](C)(NCC(C)(C)F)C(=O)N4)ncnc21    61
Cc1ncc(-c2nc3c(-c4ccc5c(c4)[C@@]4(CCCN4C(=O)C4CC4)C(=O)N5C)ncnc3n2C)cn1    100

A. CCn1c(-c2cnc(C)nc2)nc2c(-c3ccc4c(c3)[C@](C)(NCC(C)(C)F)C(=O)N4)ncnc21
B. CCn1c(-c2cnc(C)nc2)nc2c(-c3cnc4c(c3)[C@](C)(N[C@H]3CCOC3)C(=O)N4)ncnc21
*Q* # return whichever of A and B has the smaller bioavailability Give the chosen item's label as your response.
*A* B
